Origin of measurements: the supplement of paper PMC12764529

assay: folding stability dG unfold from trypsin proteolysis; higher = more stable
readout: folding stability dG unfold (kJ/mol)
Enter your answer as a number in kJ/mol; do not include the unit.

Please report the recorded folding stability dG unfold for TWTFTIMIPIKPEIREALDSGKPLPIEELVDWIKDEIARMFGFKDVTVKGIEIHPDPNGEIMVMVTIEFKPS [r1_290_TrROS] . 18

====

test: folding stability dG unfold from trypsin proteolysis; higher = more stable
Recorded measurements of folding stability dG unfold, one per entry
Just so you know, I need the unit written after the number.

SAGGMISKKLNPPSKEEAEKIAEEIKKKNPNYKVTMTYDPKTGTYTITITPLPKPPPDPKNFKEIIKSAGGS [r16_674_JUSTAS]
1.23 kcal/mol

Bench note: what folding stability dG unfold did SASPELRKLAEEAAERLVKELGVEKLEFTFTAPVLRPVYTYDPGGNKTPRLEEEIVTYSVTAVVPPEAASAG [r14_232_TrMRF] show? -0.0655 kcal/mol

Now this one: SAGGSAGGMKPTVEVRPVPPSARMVVTITLPGSGKKVTIPVPDAPAPEEPERVIEEALAYVKTSSAGGSAGG [r6_331_JUSTAS] -0.714 kcal/mol

Try this sequence too: SAGMIKVEVYTLDPNGVLTKETYEIPLLPGTPIEEVVNELTEPGTGAVEIVEYNPPPPEIKIKIVRFPASAG [r5_227_TrMRF] 1.48 kcal/mol
